- Test Target: Nischarin (Homo sapiens, UniProt Q9Y2I1)
- Sequence (Q9Y2I1 whole entry): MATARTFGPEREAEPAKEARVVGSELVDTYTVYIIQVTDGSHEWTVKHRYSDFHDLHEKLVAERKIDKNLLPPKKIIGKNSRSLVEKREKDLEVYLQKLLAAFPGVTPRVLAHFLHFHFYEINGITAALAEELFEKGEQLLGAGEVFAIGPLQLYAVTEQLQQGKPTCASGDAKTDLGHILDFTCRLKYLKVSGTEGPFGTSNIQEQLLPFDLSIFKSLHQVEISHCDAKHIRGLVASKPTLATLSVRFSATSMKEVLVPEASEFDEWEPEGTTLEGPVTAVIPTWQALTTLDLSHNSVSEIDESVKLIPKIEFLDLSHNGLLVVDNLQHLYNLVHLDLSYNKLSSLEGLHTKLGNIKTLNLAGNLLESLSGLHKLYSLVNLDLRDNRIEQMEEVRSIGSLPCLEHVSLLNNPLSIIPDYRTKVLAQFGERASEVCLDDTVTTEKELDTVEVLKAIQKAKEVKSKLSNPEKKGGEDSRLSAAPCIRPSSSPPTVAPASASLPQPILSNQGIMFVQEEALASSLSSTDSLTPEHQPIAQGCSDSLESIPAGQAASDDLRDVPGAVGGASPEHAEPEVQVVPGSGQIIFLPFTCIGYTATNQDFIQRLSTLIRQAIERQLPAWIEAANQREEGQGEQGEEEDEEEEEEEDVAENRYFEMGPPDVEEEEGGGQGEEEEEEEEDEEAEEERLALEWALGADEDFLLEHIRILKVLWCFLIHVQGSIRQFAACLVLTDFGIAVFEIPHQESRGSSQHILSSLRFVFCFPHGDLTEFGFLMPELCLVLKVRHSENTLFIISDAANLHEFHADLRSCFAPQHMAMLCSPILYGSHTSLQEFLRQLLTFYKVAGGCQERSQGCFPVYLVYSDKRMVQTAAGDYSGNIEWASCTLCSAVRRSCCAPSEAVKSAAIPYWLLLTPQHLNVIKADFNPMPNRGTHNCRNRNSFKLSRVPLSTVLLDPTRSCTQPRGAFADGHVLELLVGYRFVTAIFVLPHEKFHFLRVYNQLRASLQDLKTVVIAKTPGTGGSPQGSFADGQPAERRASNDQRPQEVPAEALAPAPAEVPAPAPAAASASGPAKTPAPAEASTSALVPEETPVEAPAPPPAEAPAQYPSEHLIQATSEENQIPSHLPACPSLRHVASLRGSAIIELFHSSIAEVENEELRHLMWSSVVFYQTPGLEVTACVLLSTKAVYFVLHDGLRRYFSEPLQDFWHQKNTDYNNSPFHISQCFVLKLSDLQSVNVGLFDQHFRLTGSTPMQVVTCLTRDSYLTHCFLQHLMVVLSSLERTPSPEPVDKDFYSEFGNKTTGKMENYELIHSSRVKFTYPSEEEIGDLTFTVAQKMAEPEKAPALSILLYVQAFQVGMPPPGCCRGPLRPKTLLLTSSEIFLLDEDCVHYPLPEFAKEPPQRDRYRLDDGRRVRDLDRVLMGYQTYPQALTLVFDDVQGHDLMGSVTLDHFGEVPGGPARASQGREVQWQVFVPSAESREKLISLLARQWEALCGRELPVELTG
- Test Protocol: Displacement of [3H]clonidine from I1IR in human brain frontal cortex in presence of adrenaline incubated for 45 mins by liquid scintillation spectrometry
pIC50: −log10 of the molar value.
Catalogue of compounds with associated pIC50
Measured Metric: pIC50

[[record]]
compound = "CCOP(=O)(OCC)C1(c2ccccc2)N=CC2C(=O)N(c3cccc([N+](=O)[O-])c3)C(=O)C21 (racemic)"
test_target = "Nischarin (Homo sapiens, UniProt Q9Y2I1)"
measured_value = 5.26

[[record]]
compound = "CCOP(=O)(OCC)C1(Cc2ccccc2)N=CC2C(=O)N(c3ccccc3)C(=O)C21 (racemic)"
test_target = "Nischarin (Homo sapiens, UniProt Q9Y2I1)"
measured_value = 5.12

[[record]]
compound = "CCOP(=O)(OCC)C1N=CC2C(=O)N(c3ccc(OC)cc3)C(=O)C21 (racemic)"
test_target = "Nischarin (Homo sapiens, UniProt Q9Y2I1)"
measured_value = 8.09

[[record]]
compound = "CCOP(=O)(OCC)C1N=CC2C(=O)N(c3ccccc3)C(=O)C21 (racemic)"
test_target = "Nischarin (Homo sapiens, UniProt Q9Y2I1)"
measured_value = 5.47

[[record]]
compound = "CCOP(=O)(OCC)C1(c2ccccc2)N=CC2C(=O)N(c3ccccc3)C(=O)C21 (racemic)"
test_target = "Nischarin (Homo sapiens, UniProt Q9Y2I1)"
measured_value = 6.74

[[record]]
compound = "CCOP(=O)(OCC)C1(c2ccccc2)N=CC2C(=O)N(c3ccc(F)c(Cl)c3)C(=O)C21 (racemic)"
test_target = "Nischarin (Homo sapiens, UniProt Q9Y2I1)"
measured_value = 3.04

[[record]]
compound = "CCOP(=O)(OCC)C1(c2ccccc2)N=CC2C(=O)N(CCc3ccccc3)C(=O)C21 (racemic)"
test_target = "Nischarin (Homo sapiens, UniProt Q9Y2I1)"
measured_value = 7.98

[[record]]
compound = "CCOP(=O)(OCC)C1(c2ccccc2)N=CC2C(=O)N(C3CCCCC3)C(=O)C21 (racemic)"
test_target = "Nischarin (Homo sapiens, UniProt Q9Y2I1)"
measured_value = 7.54


---

- Test Protocol: Displacement of [3H]2-BFI from I2IR in human brain frontal cortex assessed as binding affinity at high affinity site incubated for 45 mins by liquid scintillation spectrometry
- Assay type: tissue-based
Entries annotated with measured Ki
Measured Metric: Ki

[[record]]
smiles_code = "c1ccc2oc(C3=NCCN3)cc2c1"
measured_metric = "Ki"
measured_value = "0.13 nM"

[[record]]
smiles_code = "C(=C\\c1ccccc1)/C1=NCCN1"
measured_metric = "Ki"
measured_value = "3.3 nM"


---

- Test Target: UniProt:Q9Y2I1
- Test Protocol: Displacement of [3H]clonidine from I1IR in human brain frontal cortex in presence of adrenaline incubated for 45 mins by liquid scintillation spectrometry
Measured Metric: Ki (µM)

[[record]]
compound = "CCOP(=O)(OCC)C1(c2ccccc2)N=CC2C(=O)N(c3ccc(F)c(Cl)c3)C(=O)C21 (racemic)"
measured_metric = "Ki"
measured_value = 912


---

- Test Target: Alpha-2A adrenergic receptor (Homo sapiens, UniProt P08913)
- Sequence (P08913 whole entry): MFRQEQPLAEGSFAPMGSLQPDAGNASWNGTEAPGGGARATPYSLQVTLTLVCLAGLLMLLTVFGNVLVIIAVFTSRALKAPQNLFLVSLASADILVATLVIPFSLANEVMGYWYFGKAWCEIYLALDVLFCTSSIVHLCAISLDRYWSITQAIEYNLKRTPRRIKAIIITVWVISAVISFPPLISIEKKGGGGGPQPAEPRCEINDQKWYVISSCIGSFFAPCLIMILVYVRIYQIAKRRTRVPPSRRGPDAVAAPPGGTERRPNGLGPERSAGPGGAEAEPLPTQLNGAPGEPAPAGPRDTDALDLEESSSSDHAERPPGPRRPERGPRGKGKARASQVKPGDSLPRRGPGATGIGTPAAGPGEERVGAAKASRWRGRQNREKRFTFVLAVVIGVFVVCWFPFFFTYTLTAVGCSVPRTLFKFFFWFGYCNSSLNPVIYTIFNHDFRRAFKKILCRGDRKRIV
- Test Protocol: biochemical
- Description: Displacement of [3H]RX821002 from alpha2-AR in human brain frontal cortex incubated for 30 mins by liquid scintillation spectrometry
pKi: −log10 of the molar value.
Recorded pKi values for a group of molecules are listed next.
Measured Metric: pKi

[[record]]
molecule = "CCOP(=O)(OCC)C1N=CC2C(=O)N(c3ccc(OC)cc3)C(=O)C21 (racemic)"
measured_value = 10.27

[[record]]
molecule = "CCOP(=O)(OCC)C1(c2ccc(F)cc2)N=CC2C(=O)N(c3ccc(F)c(Cl)c3)C(=O)C21 (racemic)"
measured_value = 3.38

[[record]]
molecule = "CCOP(=O)(OCC)C1(c2ccccc2)N=CC2C(=O)N(c3c(Cl)cc(Cl)cc3Cl)C(=O)C21 (racemic)"
measured_value = 5.16

[[record]]
molecule = "CCOP(=O)(OCC)C1(c2ccc(OC)cc2)N=CC2C(=O)N(c3ccccc3)C(=O)C21 (racemic)"
measured_value = 3.85

[[record]]
molecule = "CCOP(=O)(OCC)C1N=CC2C(=O)N(c3ccccc3)C(=O)C21 (racemic)"
measured_value = 5.02

[[record]]
molecule = "CCOP(=O)(OCC)C1(c2ccc(F)cc2)N=CC2C(=O)N(c3ccccc3)C(=O)C21 (racemic)"
measured_value = 6.77

[[record]]
molecule = "CCOP(=O)(OCC)C1(c2ccccc2)N=CC2C(=O)N(c3ccccc3Cl)C(=O)C21 (racemic)"
measured_value = 6.15

[[record]]
molecule = "CCOP(=O)(OCC)C1N=CC2C(=O)N(C)C(=O)C21 (racemic)"
measured_value = 8.35


---

- Organism: Homo sapiens
- Test Protocol: Selectivity ratio of Ki for alpha2-AR high binding site in human brain frontal cortex to Ki for I2IR high binding site in human brain frontal cortex
Measured Metric: Ratio Ki

[[record]]
molecule = "CCOP(=O)(OCC)C1(c2ccccc2)N=CC2C(=O)N(C3Cc4ccccc4C3)C(=O)C21 (racemic)"
measured_value = 2690

[[record]]
molecule = "c1ccc2oc(C3=NCCN3)cc2c1"
measured_value = 1700

[[record]]
molecule = "c1ccc(-c2ncc3cc(-n4ccnc4)ccc3n2)cc1"
measured_value = 117000

[[record]]
molecule = "CCOP(=O)(OCC)C1(c2ccccc2)N=CC2C(=O)N(c3ccccc3Cl)C(=O)C21 (racemic)"
measured_value = 24

[[record]]
molecule = "C(=C\\c1ccccc1)/C1=NCCN1"
measured_value = 14100

[[record]]
molecule = "c1ccc2oc(-c3ncc[nH]3)cc2c1"
measured_value = 7240

[[record]]
molecule = "CCOP(=O)(OCC)C1(c2ccccc2)N=CC2C(=O)N(CC)C(=O)C21 (racemic)"
measured_value = 1260


---

- Test Protocol: Displacement of [3H]2-BFI from I2IR in human brain frontal cortex assessed as binding affinity at high affinity site incubated for 45 mins by liquid scintillation spectrometry
- Type: tissue-based
Measured Metric: pKi

[[record]]
compound = "CCOP(=O)(OCC)C1(c2ccccc2)N=CC2C(=O)N(C3Cc4ccccc4C3)C(=O)C21 (racemic)"
measured_metric = "pKi"
measured_value = 6.87

[[record]]
compound = "c1ccc(-c2ncc3cc(-n4ccnc4)ccc3n2)cc1"
measured_metric = "pKi"
measured_value = 7.72

[[record]]
compound = "c1ccc2oc(C3=NCCN3)cc2c1"
measured_metric = "pKi"
measured_value = 9.87


---

- Test Target: Alpha-2A adrenergic receptor (Homo sapiens)
- Sequence (P08913 whole entry): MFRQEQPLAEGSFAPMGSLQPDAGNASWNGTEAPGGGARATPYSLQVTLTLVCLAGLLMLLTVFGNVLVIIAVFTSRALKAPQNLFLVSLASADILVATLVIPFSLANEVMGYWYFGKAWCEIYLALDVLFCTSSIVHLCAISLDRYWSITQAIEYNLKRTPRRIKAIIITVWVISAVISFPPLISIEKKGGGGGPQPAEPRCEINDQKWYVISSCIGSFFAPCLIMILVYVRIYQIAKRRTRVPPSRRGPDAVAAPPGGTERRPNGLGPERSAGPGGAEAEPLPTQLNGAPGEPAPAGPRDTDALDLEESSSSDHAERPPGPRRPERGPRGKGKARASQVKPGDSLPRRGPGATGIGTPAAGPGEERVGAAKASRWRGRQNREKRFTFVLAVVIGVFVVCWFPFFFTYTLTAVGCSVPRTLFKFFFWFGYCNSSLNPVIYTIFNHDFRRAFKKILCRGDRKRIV
Item-by-item account of Ki
Measured Metric: Ki

[[record]]
molecule = "c1ccc2oc(-c3ncc[nH]3)cc2c1"
measured_metric = "Ki"
measured_value = "6.76 µM"

[[record]]
molecule = "CCOP(=O)(OCC)C1(c2ccccc2)N=CC2C(=O)N(CC)C(=O)C21 (racemic)"
measured_metric = "Ki"
measured_value = "1.41 µM"

[[record]]
molecule = "CCOP(=O)(OCC)C1(c2ccccc2)N=CC2C(=O)N(CCc3ccccc3)C(=O)C21 (racemic)"
measured_metric = "Ki"
measured_value = "170 µM"

[[record]]
molecule = "c1ccc2oc(C3=NCCN3)cc2c1"
measured_metric = "Ki"
measured_value = "0.229 µM"

[[record]]
molecule = "CCOP(=O)(OCC)C1(c2ccccc2)N=CC2C(=O)N(C)C(=O)C21 (racemic)"
measured_metric = "Ki"
measured_value = "1.17 µM"

[[record]]
molecule = "c1ccc(-c2ncc3cc(-n4ccnc4)ccc3n2)cc1"
measured_metric = "Ki"
measured_value = "2240 µM"

[[record]]
molecule = "CCOP(=O)(OCC)C1(c2ccccc2)N=CC2C(=O)N(c3ccc(F)cc3)C(=O)C21 (racemic)"
measured_metric = "Ki"
measured_value = "4.57 µM"

[[record]]
molecule = "CCOP(=O)(OCC)C1(c2ccccc2)N=CC2C(=O)N(c3ccc(C(F)(F)F)cc3)C(=O)C21 (racemic)"
measured_metric = "Ki"
measured_value = "18.6 µM"

[[record]]
molecule = "CCOP(=O)(OCC)C1(Cc2ccccc2)N=CC2C(=O)N(c3ccccc3)C(=O)C21 (racemic)"
measured_metric = "Ki"
measured_value = "115 µM"

[[record]]
molecule = "CCOP(=O)(OCC)C1(c2ccccc2)N=CC2C(=O)N(CCc3ccc(F)cc3)C(=O)C21 (racemic)"
measured_metric = "Ki"
measured_value = "2.24 µM"

